Recorded % Enhancement in bioavailability, one value per entry.
- ASSAY_NAME: Enhancement in bioavailability of drugs by the Cuminum cyminum active molecule / fraction
- ASSAY_CONDITIONS: drug given with Active molecule (3′,5-dihydroxy flavone-7-O-β-D-galacturonide-4′-O-β-D-glucopyranoside)
API: value field is a number in %; no unit string.

As a guide, the following entries are already answered.
{"MOLECULE": "CC1(C)S[C@@H]2[C@H](NC(=O)[C@H](N)c3ccc(O)cc3)C(=O)N2[C@H]1C(=O)O", "% Enhancement in bioavailability, %": 68}
{"MOLECULE": "CN(Cc1cnc2nc(N)nc(N)c2n1)c1ccc(C(=O)N[C@@H](CCC(=O)O)C(=O)O)cc1 [Methotrexate]", "% Enhancement in bioavailability, %": 95}
{"MOLECULE": "CN1C(C(=O)Nc2ccccn2)=C(O)c2ccccc2S1(=O)=O", "% Enhancement in bioavailability, %": 76}

Request: Specify % Enhancement in bioavailability for CC(=O)N1CCN(c2ccc(OCC3COC(Cn4ccnc4)(c4ccc(Cl)cc4Cl)O3)cc2)CC1 (stereo not shown) and stop.
Response: 77

Request: Specify % Enhancement in bioavailability for "CC1=C(C(=O)O)N2C(=O)[C@@H](NC(=O)[C@H](N)c3ccc(O)cc3)[C@H]2SC1" and stop.
Response: 85

Request: Specify % Enhancement in bioavailability for "CC[C@H]1OC(=O)[C@H](C)[C@@H](O[C@H]2C[C@@](C)(OC)[C@@H](O)[C@H](C)O2)[C@H](C)[C@@H](O[C@@H]2O[C@H](C)C[C@H](N(C)C)[C@H]2O)[C@](C)(O)C[C@@H](C)C(=O)[C@H](C)[C@@H](O)[C@]1(C)O" and stop.
Response: 70

Request: Specify % Enhancement in bioavailability for "N[C@@H]1CON=C1O" and stop.
Response: 85

Request: Specify % Enhancement in bioavailability for "C=CC[C@@H]1/C=C(\C)C[C@H](C)C[C@H](OC)[C@H]2O[C@@](O)(C(=O)C(=O)N3CCCC[C@H]3C(=O)O[C@H](/C(C)=C/[C@@H]3CC[C@@H](O)[C@H](OC)C3)[C@H](C)[C@@H](O)CC1=O)[C@H](C)C[C@@H]2OC" and stop.
Response: 90

Request: Specify % Enhancement in bioavailability for CCOC(=O)C1=C(COCCN)NC(C)=C(C(=O)OC)C1c1ccccc1Cl (stereo not shown) and stop.
Response: 80

###

- ASSAY_NAME: Enhancement in bioavailability of drugs by the Cuminum cyminum active molecule / fraction
- ASSAY_CONDITIONS: drug given with Active molecule (3′,5-dihydroxy flavone-7-O-β-D-galacturonide-4′-O-β-D-glucopyranoside)
Please use MET whenever % Enhancement in bioavailability is not below 90%, and NOT MET whenever it is.

{"COMPOUND": "CC[C@H]1OC(=O)[C@H](C)[C@@H](O[C@H]2C[C@@](C)(OC)[C@@H](O)[C@H](C)O2)[C@H](C)[C@@H](O[C@@H]2O[C@H](C)C[C@H](N(C)C)[C@H]2O)[C@](C)(O)C[C@@H](C)CN(C)[C@H](C)[C@@H](O)[C@]1(C)O", "GROUP_LABEL": "NOT MET"}
{"COMPOUND": "COc1ccc2[nH]c([S+]([O-])Cc3ncc(C)c(OC)c3C)nc2c1 (stereo not shown)", "GROUP_LABEL": "NOT MET"}
{"COMPOUND": "O=C(O)Cc1ccccc1Nc1c(Cl)cccc1Cl", "GROUP_LABEL": "MET"}

Shift focus to the following entry.
Request: Assess whether reported % Enhancement in bioavailability for CC(C)(C)NCC(O)c1ccc(O)c(CO)c1 (stereo not shown) sits at 90% or higher.
Response: MET
